- assayed_target: Rheb (Homo sapiens)
- Construct: made in house
- Sequence (Q15382 whole entry): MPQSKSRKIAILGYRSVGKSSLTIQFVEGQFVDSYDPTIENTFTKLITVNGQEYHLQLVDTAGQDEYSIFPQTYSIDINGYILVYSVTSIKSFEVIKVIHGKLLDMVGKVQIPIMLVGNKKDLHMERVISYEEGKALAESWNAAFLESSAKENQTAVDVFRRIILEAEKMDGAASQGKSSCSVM
- protocol_details: Rheb GTP Binding Domain Inhibition Assay
- condition_summary: read-out: Rheb: % inh.
metric: inhibition at 20 µM

Check out these entries, answers already filled in.
Cc1c(-c2ccn(C(C)C)n2)cn2nc(-c3nccn3C)nc(Nc3ccncn3)c12 [Compound 55]	76 to 100%
CCn1ccc(-c2cn3nc(-c4nccn4C)nc(Nc4cc(OC)ncn4)c3c2C)n1 [Compound 64]	50 to 75%
Cc1c(-c2ccn(C(C)C)n2)cn2nc(-c3nccn3C)nc(Nc3noc(C4CC4)n3)c12 [Compound 75]	1 to 25%

Shifting focus to the compound that follows.
**Q:** Which inhibition at 20 µM value belongs to COc1ccnc(Nc2nc(-c3nccn3C)nn3cc(-c4ccn(C(C)C)n4)c(C)c23)n1 [Compound 53] ?
**A:** 76 to 100%

###

- System: KRas G12D mutant
- protocol_details: Ras GTP Binding Domain Inhibition Assay (Ras Superfamily Assay)
- condition_summary: 20 μM compound, with SOS
metric: KRas G12D mutant + SOS: % inh.

COc1cnc(Nc2nc(-c3nccn3C)nn3cc(-c4ccn(C)n4)c(C)c23)nc1.Cl [Compound 117]	A (A = 1-25% inhibition)
Cn1ccnc1-c1nc(OCCN2CCCC2)c2c(-c3ccccc3)ccn2n1 [Compound 41]	A (A = 1-25% inhibition)
CO[C@@H]1CC[C@@H](Nc2nc(-c3nccn3C)nn3cc(-c4ccn(C)n4)c(C)c23)C1 (racemic) [Compound 132]	A (A = 1-25% inhibition)

###

- Test system: KRas Q61H mutant
- protocol_details: Ras GTP Binding Domain Inhibition Assay (Ras Superfamily Assay)
- condition_summary: 20 μM compound, with SOS
Consider the following compounds and their measured KRas Q61H mutant + SOS: % inh. readings.

Check out these entries, answers already filled in.
Cc1c(-c2ccn(C(C)C)n2)cn2nc(-c3nccn3C)nc(Nc3cc(C4CC4)no3)c12 [Compound 69]	0 (0 = 0% inhibition)
COc1cccc(-c2cn3nc(-c4nccn4C)nc(N[C@@H]4CC[C@@H](OC)C4)c3c2-c2ccccc2)c1Cl.Cl (racemic) [Compound 34]	0 (0 = 0% inhibition)

Shifting focus to the compound that follows.
**Q:** Which KRas Q61H mutant + SOS: % inh. value belongs to COc1cccc(Nc2nc(-c3nccn3C)nn3cc(-c4ccn(C(C)C)n4)c(-c4ccccc4)c23)n1 [Compound 23] ?
**A:** 0 (0 = 0% inhibition)

###

Consider the following compounds and their measured KRas G12D mutant: % inh. readings.
- System: KRas G12D mutant
- protocol_details: Ras GTP Binding Domain Inhibition Assay (Ras Superfamily Assay)
- condition_summary: 20 μM compound, without SOS
- Text: Biological Example 3: Ras GTP Binding Domain Inhibition Assay The assays described in Example 3 are collectively referred to as the “Ras Superfamily Assay” throughout this application. […] The small GTPases proteins: KRas wild type. KRas Q61H mutant, KRas G12C mutant, KRas G12D mutants, Rac-1, and Rho-A were expressed as His-tagged proteins. In addition, the Guanosine nucleotide Exchange Factor (GEF) Sos protein (residues 556-1049) was expressed as a His-tagged protein. […]

COCCCNc1nc(-c2nccn2C)nn2cc(-c3cccc(OC)c3Cl)c(-c3ccccc3)c12 [Compound 30]	0 (0 = 0% inhibition)

Shifting focus to the compound that follows.
**Q:** Which KRas G12D mutant: % inh. value belongs to COc1cccc(-c2cn3nc(-c4nccn4C)nc(N[C@@H]4CC[C@@H](OC)C4)c3c2-c2ccccc2)c1Cl.Cl (racemic) [Compound 34] ?
**A:** 0 (0 = 0% inhibition)

###

- System: KRas G12D mutant
- protocol_details: Ras GTP Binding Domain Inhibition Assay (Ras Superfamily Assay)
- condition_summary: 20 μM compound, without SOS
metric: KRas G12D mutant: % inh.

**Q:** Which KRas G12D mutant: % inh. value belongs to COC[C@@H]1CC[C@@H]1CNc1nc(-c2ccccn2)nn2cc(-c3ccn(C(C)C)n3)c(-c3ccccc3)c12 (racemic) [Compound 26] ?
**A:** 0 (0 = 0% inhibition)

###

- assayed_target: Rho-A (Homo sapiens)
- Construct: made in house
- Sequence (P61586 whole entry): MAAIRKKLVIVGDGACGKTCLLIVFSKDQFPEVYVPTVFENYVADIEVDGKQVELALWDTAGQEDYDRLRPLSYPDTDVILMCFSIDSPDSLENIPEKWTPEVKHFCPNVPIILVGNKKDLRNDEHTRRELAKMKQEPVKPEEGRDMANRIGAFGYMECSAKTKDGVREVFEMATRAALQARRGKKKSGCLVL
- protocol_details: Ras GTP Binding Domain Inhibition Assay (Ras Superfamily Assay)
- condition_summary: read-out: Rho-A: % inh..
metric: inhibition at 20 µM

COc1cc(Nc2nc(-c3nccn3C)nn3cc(-c4ccncc4)c(C)c23)ncn1	26 to 49%
COc1cc(Nc2nc(-c3nccn3C)nn3cc(-c4ccn(C(C)C)n4)c(C)c23)n[nH]1	76 to 100%
Cc1c(-c2ccn(C(C)C)n2)cn2nc(-c3ccccn3)nc(O)c12	0%
COCCNc1nc(-c2nccn2C)nn2cc(-c3ccn(C(C)C)n3)c(C(C)C)c12	1 to 25%
Cc1c(-c2ccn(C(C)C)n2)cn2nc(-c3nccn3C)nc(Nc3ncco3)c12	1 to 25%

**Q:** GET /values?readout=inhibition at 20 µM&system=Rho-A (Homo sapiens)&item= COc1cc(Nc2nc(-c3nccn3C)nn3cc(-c4cccnc4)c(C)c23)ncn1
**A:** 76 to 100%

**Q:** GET /values?readout=inhibition at 20 µM&system=Rho-A (Homo sapiens)&item= Cc1c(-c2ccn(C(C)C)n2)cn2nc(-c3nccn3C)nc(Nc3ccn(C)n3)c12
**A:** 76 to 100%

**Q:** GET /values?readout=inhibition at 20 µM&system=Rho-A (Homo sapiens)&item= COCC1CCN(c2nc(-c3nccn3C)nn3cc(-c4ccn(C(C)C)n4)c(C)c23)C1 (racemic)
**A:** 0%

###

- System: MAPK p38 phosphorylation
- protocol_details: MAPK p38 Activation Assay (western blot), Panc-1
- Format: cell-based, human
- condition_summary: at 10 μM, Panc-1 pancreatic cancer cell line; starred symbols = activation
metric: % inh of MAPK p38 in Panc-1

COc1cccc(-c2cn3nc(-c4nccn4C)nc(N[C@@H]4CC[C@@H](OC)C4)c3c2-c2ccccn2)c1F (racemic)	H (H = 100% inhibition)
COc1cccc(-c2cn3nc(-c4nccn4C)nc(N[C@H]4C[C@H](OC)C4)c3c2-c2ccccc2)c1Cl	H (H = 100% inhibition)
CC(C)n1ccc(-c2cn3nc(-c4nccn4C)nc(O)c3c2-c2ccccc2)n1	0 (0 = 0% inhibition)

###

- Tested on: KRas wild type
- protocol_details: Ras GTP Binding Domain Inhibition Assay (Ras Superfamily Assay)
- condition_summary: 20 μM compound, with SOS
- Text: Biological Example 3: Ras GTP Binding Domain Inhibition Assay The assays described in Example 3 are collectively referred to as the “Ras Superfamily Assay” throughout this application. […] The small GTPases proteins: KRas wild type. KRas Q61H mutant, KRas G12C mutant, KRas G12D mutants, Rac-1, and Rho-A were expressed as His-tagged proteins. In addition, the Guanosine nucleotide Exchange Factor (GEF) Sos protein (residues 556-1049) was expressed as a His-tagged protein. […]
metric: KRas wild type + SOS: % inh.

COCC1CCN(c2nc(-c3nccn3C)nn3cc(-c4ccn(C(C)C)n4)c(-c4ccccc4)c23)C1.Cl (racemic)	A (A = 1-25% inhibition)
CO[C@H]1CC[C@H](Nc2nc(-c3nccn3C)nn3cc(-c4ccn(C)n4)c(C(=O)NCCN4CCOCC4)c23)C1 (racemic)	0 (0 = 0% inhibition)
COCCO[C@H]1C[C@H](Nc2nc(-c3nccn3C)nn3cc(-c4ccnc(OC)c4)c(C)c23)C1	0 (0 = 0% inhibition)
CO[C@H]1CC[C@@H](Nc2nc(-c3nccn3C)nn3cc(-c4cccnc4)c(C)c23)C1 (racemic)	A (A = 1-25% inhibition)
Cc1c(-c2ccn(C(C)C)n2)cn2nc(-c3nccn3C)nc(Nc3ncco3)c12	A (A = 1-25% inhibition)
COc1cccc(-c2cn3nc(-c4nccn4C)nc(N[C@H]4C[C@H](OC)C4)c3c2-c2ccccc2)c1Cl	0 (0 = 0% inhibition)
Cc1c(-c2ccn(C)n2)cn2nc(-c3nccn3C)nc(Nc3nnco3)c12.Cl	A (A = 1-25% inhibition)

Shifting focus to the molecule that follows.
**Q:** Which KRas wild type + SOS: % inh. value belongs to CO[C@H]1C[C@H](Nc2nc(-c3nccn3C)nn3cc(-c4ccncc4)c(C)c23)C1 ?
**A:** 0 (0 = 0% inhibition)

###

- Tested on: KRas wild type
- protocol_details: Ras GTP Binding Domain Inhibition Assay (Ras Superfamily Assay)
- condition_summary: 20 μM compound, with SOS
metric: KRas wild type + SOS: % inh.

Check out these entries, answers already filled in.
COc1cc(-c2cn3nc(-c4nccn4C)nc(N[C@H]4C[C@H](OC)C4)c3c2C)ccn1 [Compound 160]	0 (0 = 0% inhibition)
COc1cccnc1Nc1nc(-c2nccn2C)nn2cc(-c3ccn(C)n3)c(C)c12 [Compound 112]	0 (0 = 0% inhibition)
COC1CCCN(c2nc(-c3nccn3C)nn3cc(-c4ccn(C(C)C)n4)c(C)c23)C1 (racemic) [Compound 4]	A (A = 1-25% inhibition)
COCCNc1nc(-c2nccn2C)nn2cc(-c3cccc(OC)c3Cl)c(C)c12 [Compound 16]	A (A = 1-25% inhibition)
COc1ncncc1Nc1nc(-c2nccn2C)nn2cc(-c3ccn(C(C)C)n3)c(C)c12 [Compound 88]	0 (0 = 0% inhibition)
COc1cccc(-c2cn3nc(-c4nccn4C)nc(N[C@@H]4CC[C@@H](OC)C4)c3c2-c2ccccc2)c1Cl.Cl (racemic) [Compound 34]	A (A = 1-25% inhibition)

**Q:** Which KRas wild type + SOS: % inh. value belongs to CO[C@H]1CC[C@@H](Nc2nc(-c3ccccn3)nn3cc(-c4ccn(C(C)C)n4)c(C)c23)C1 (racemic) [Compound 9] ?
**A:** 0 (0 = 0% inhibition)

Source of measurements: patent US12459951B2
